The measured values listed here are drawn from patent US6756342B1.

The following compounds are listed with their measured chromatographic logP values.
assay: logP determination by reversed-phase HPLC (EEC Directive 79/831 Annex V.A8); type: physicochemical; details: reversed-phase C18 HPLC column; a) acidic range: 0.1% aqueous phosphoric acid/acetonitrile gradient, C18, 43° C.
Structures can show the parent of a compound that is named as a salt.
Give the figure by itself; no unit, no explanation.

Q. Provide only the value of recorded chromatographic logP for CC(F)c1nc(N)nc(NC2CCCc3sccc32)n1 (centres unmarked)
A. 4.26

***
Q. Provide only the value of recorded chromatographic logP for [H]/N=C(/N)N/C(=N/[H])NC1CCCc2sc(C)cc21 (centres unmarked) [Example II-1, hydrochloride]
A. 1.12
